Species on record: Rattus norvegicus
Assay: Compound was tested for lethal dose at day 16 against rat
Type: ADME, organism-based
Conditions: in vivo
observation.type: LD50

Lab book: LD50 of Cn1cnc([N+](=O)[O-])c1Sc1nc(N)nc2c1ncn2[C@H]1C[C@H](O)[C@@H](CO)O1 noted as 100 mg kg-1 (day in diet)-1

Input Cn1cnc([N+](=O)[O-])c1Sc1nc(N)nc2c1ncn2[C@@H]1O[C@H](CO)[C@@H](O)[C@H]1O . Output LD50: 50 mg kg-1 (day in diet)-1

LD50 in this record for Sc1ncnc2nc[nH]c12 [MERCAPTOPURINE ANHYDROUS] : 25 mg kg-1 (day in diet)-1

Consider Cn1cnc([N+](=O)[O-])c1Sc1nc(N)nc2[nH]cnc12 [THIAMIPRINE] . Its measured LD50 is 60 mg kg-1 (day in diet)-1

Memo: Nc1nc2nc[nH]c2c(=S)[nH]1 [THIOGUANINE] , reported LD50: 20 mg kg-1 (day in diet)-1

compound Cn1cnc([N+](=O)[O-])c1Sc1ncnc2c1ncn2[C@H]1C[C@H](O)[C@@H](CO)O1 , LD50 observed: > 270 mg kg-1 (day in diet)-1

// LD50 value for Cn1cnc([N+](=O)[O-])c1Sc1ncnc2nc[nH]c12 [AZATHIOPRINE] : 150 mg kg-1 (day in diet)-1

Lab book: LD50 of Cn1cnc([N+](=O)[O-])c1Sc1ncnc2c1ncn2[C@@H]1O[C@H](CO)[C@@H](O)[C@H]1O noted as 200 mg kg-1 (day in diet)-1
